Biological target: IL-15 (human, UniProt P40933)
Sequence (P40933 49-162): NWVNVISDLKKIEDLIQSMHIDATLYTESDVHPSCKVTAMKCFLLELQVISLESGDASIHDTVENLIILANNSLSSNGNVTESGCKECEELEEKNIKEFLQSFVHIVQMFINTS
Assay: SPR, PD1 capture
Measured Metric: pKd
Just the number, please; pKd means minus log10 of the concentration in mol/L.

Ask: Tell me the measured pKd of RV29 IL-15 arm (antibody, V domains shown) VH: QVQLVQSGAEVKKPGASVKVSCKASGYSFSSFGISWVRQAPGQGLEWLGWISAFNGYTKYAQKFQDRVTMTTDTSTSTAYMELRSLRSDDTAVYYCARDPAAWPLQQSLAWFDPWGQGTMVTVSS VL: QSVLTQPPSASGTPGQRVTISCSGSTSNLKRNYVYWYQQLPGTAPKLLIYRDRRRPSGVPDRFSGSKSGTSASLAISGLRSEDEADYYCAWYDRELSEWVFGGGTKLTVL , please.
Result: 9.47

Further cases:
Ask: Which pKd reading was recorded for the binder RV37 IL-15 arm (antibody, V domains shown) VH: QVQLVQSGAEVKKPGASVKVSCKASGYSFSSFGISWVRQAPGQGLEWLGWISAFNGYTKYAQKFQDRVTMTTDTSTSTAYMELRSLRSDDTAVYYCARDPAAWPLQQSLAWFDPWGQGTMVTVSS VL: QSVLTQPPSASGTPGQRVTISCSGSTSNLKRNYVYWYQQLPGTAPKLLIYRDRRRPSGVPDRFSGSKSGTSASLAISGLRSEDEADYYCAWYDRELSEWVFGGGTKLTVL ?
Result: 9.64

Ask: I would be grateful if you could share the reported pKd for RV30 IL-15 arm (antibody, V domains shown) VH: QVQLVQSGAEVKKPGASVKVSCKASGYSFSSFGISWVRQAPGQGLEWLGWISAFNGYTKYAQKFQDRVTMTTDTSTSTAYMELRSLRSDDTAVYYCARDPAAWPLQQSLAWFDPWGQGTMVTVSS VL: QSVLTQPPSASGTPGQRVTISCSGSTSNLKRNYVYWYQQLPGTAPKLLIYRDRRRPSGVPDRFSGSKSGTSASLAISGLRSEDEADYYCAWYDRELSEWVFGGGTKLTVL .
Result: 9.34
